- subject-of-test: HLA-B*39:01
- method: IEDB peptide-MHC binding, purified MHC/competitive/fluorescence; filed as Kd, often an IC50 or EC50 that approximates it; bounds were set here for any values at or beyond the usual limits of such assays
- measurement-conditions: source organism: Shigella boydii CDC 3083-94
parameter: Kd (nM)
Give the number; nM is assumed, so skip it.

Prompt: If you can, please state the reported Kd value of `QEPGIFCAI` .
Completion: 496

* * *

- subject-of-test: HLA-A*26:01
- method: IEDB peptide-MHC binding, purified MHC/competitive/fluorescence; filed as Kd, often an IC50 or EC50 that approximates it; bounds were set here for any values at or beyond the usual limits of such assays
- measurement-conditions: source organism: Escherichia coli E22
parameter: Kd

Prompt: // Kd lookup, key: `YQTYVSPGA`
Completion: ≥ 20 µM

* * *

- subject-of-test: HLA-A*31:01
- method: IEDB peptide-MHC binding, purified MHC/competitive/radioactivity; filed as Kd, often an IC50 or EC50 that approximates it; bounds were set here for any values at or beyond the usual limits of such assays
- measurement-conditions: source organism: Triticum aestivum
pKd: −log10 of the molar value.
parameter: pKd

Prompt: Fill blank: measured pKd of the sequence `VVLQQHSIAY` is ____.
Completion: ≤ 4.15

* * *

- subject-of-test: HLA-A*69:01
- method: IEDB peptide-MHC binding, purified MHC/direct/fluorescence; filed as Kd, often an IC50 or EC50 that approximates it; bounds were set here for any values at or beyond the usual limits of such assays
- measurement-conditions: source organism: Vibrio cholerae
pKd: −log10 of the molar value.
Entries and their pKd values follow.

>>> print(df.to_string())
   input_sequence  result
0       RVHGATVFK  ≤ 4.70

Read the next record carefully.
Prompt: Could you share which pKd value was measured for `DSDPMDGCE` ?
Completion: ≤ 4.70

* * *

Some sequences, each annotated with its measured pKd.
- subject-of-test: HLA-B*15:01
- method: IEDB peptide-MHC binding, purified MHC/competitive/radioactivity; filed as Kd, often an IC50 or EC50 that approximates it; bounds were set here for any values at or beyond the usual limits of such assays
- measurement-conditions: source organism: Dengue virus 2 Jamaica/1409/1983
Quick note: pKd means taking -log10 of the concentration in moles per liter.

>>> df
   input_sequence  result_number
0      RSNAALGAIF           7.39
1       ISRMLINRF           6.75
2       YSQIGAGVY           7.81
3       TMKHKKATY           7.08
4       GMNSRSTSL           7.06

Prompt: Which measured pKd value corresponds to `KQTGSASSM` ?
Completion: 7.97

Prompt: Fill blank: measured pKd of the sequence `YLAGAGLLF` is ____.
Completion: 8.73

* * *

- subject-of-test: HLA-B*44:02
- method: IEDB peptide-MHC binding, purified MHC/direct/fluorescence; filed as Kd, often an IC50 or EC50 that approximates it; bounds were set here for any values at or beyond the usual limits of such assays
- measurement-conditions: source organism: West Nile virus strain PTRoxo
parameter: Kd

Prompt: Kindly state the measured Kd obtained for `EIPDVLNSL` with HLA-B*44:02.
Completion: ≥ 20 µM
